biological target: P-gp (ABCB1) (Homo sapiens, UniProt P08183); assay: Substrate activity at human P-gp assessed as efflux ratio; format: ADME; details: not told
Sequence (P08183 whole entry): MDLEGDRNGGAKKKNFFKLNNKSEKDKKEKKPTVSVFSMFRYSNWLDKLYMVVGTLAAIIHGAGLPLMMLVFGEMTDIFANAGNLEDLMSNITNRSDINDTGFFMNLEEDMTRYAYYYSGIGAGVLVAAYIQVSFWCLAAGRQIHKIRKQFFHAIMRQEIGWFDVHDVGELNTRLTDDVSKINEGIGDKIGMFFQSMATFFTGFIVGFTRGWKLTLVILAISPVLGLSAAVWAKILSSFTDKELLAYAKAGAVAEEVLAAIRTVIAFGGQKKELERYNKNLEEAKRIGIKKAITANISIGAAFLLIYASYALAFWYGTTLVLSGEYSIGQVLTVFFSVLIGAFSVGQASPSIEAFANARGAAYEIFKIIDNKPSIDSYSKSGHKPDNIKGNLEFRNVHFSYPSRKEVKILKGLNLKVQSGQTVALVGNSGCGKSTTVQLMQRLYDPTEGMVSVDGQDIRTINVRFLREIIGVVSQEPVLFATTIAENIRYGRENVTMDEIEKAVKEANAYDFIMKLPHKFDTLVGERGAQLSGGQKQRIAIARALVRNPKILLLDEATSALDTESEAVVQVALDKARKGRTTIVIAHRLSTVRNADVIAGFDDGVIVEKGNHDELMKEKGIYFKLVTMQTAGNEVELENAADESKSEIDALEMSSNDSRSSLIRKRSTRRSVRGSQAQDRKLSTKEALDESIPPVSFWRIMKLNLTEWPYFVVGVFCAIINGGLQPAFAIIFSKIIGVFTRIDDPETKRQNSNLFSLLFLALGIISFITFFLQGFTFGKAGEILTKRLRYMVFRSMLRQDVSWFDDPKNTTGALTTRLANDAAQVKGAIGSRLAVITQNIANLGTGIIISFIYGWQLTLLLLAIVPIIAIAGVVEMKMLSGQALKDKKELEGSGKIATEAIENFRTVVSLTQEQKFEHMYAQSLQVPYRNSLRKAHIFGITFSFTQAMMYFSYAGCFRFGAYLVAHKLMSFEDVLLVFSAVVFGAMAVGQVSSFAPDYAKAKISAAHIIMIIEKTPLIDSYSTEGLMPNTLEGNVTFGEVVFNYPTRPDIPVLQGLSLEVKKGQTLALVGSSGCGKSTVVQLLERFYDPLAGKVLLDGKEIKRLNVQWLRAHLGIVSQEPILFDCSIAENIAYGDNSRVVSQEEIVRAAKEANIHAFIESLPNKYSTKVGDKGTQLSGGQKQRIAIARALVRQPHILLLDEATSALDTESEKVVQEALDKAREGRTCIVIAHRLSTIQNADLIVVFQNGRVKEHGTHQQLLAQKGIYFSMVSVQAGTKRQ
property-label: efflux ratio

Item: Cc1ccc([C@H]2C[C@@H]2COc2cc(NCc3nnc(C)s3)nc(C)n2)nc1 [MK-8189] Test system: P-gp (ABCB1) (Homo sapiens, UniProt P08183) Read-out: efflux ratio Value: ?
< 2

====

assay: Plasma concentration in rat at 0.25 mg/kg, po measured after 1 hr; format: ADME, organism-based
property-label: concentration at 1 h
Numeric answer plus unit only.

Find the recorded concentration at 1 h belonging to Cc1ccc([C@H]2C[C@@H]2COc2cc(NCc3nnc(C)s3)nc(C)n2)nc1 [MK-8189] and report it.
29 nM

====

assay: Aqueous solubility of the compound at pH 7; assay type: physicochemical; settings: buffer
Binary call on solubility: Criterion met from 80 µM upward, Criterion not met beneath that.

Record excerpt, results attached:
| molecule | discrete-label |
| --- | --- |
| Cn1cc(CNc2cc(OC[C@H]3C[C@@H]3c3ccccn3)nc3ccccc23)cn1 | Criterion not met |
| Cc1c(NCc2cnn(C)c2)cc(OC[C@H]2C[C@@H]2c2ccccn2)nc1Cl | Criterion met |
| Cn1cc(CNc2cc(OC[C@H]3C[C@@H]3c3ccccn3)nc3ccncc23)cn1 | Criterion not met |

# bool: solubility of Cc1ccc([C@H]2C[C@@H]2COc2cc(NCc3nnc(C)s3)nc(C)n2)nc1 [MK-8189] >= 80 µM
Criterion met

# bool: solubility of Cn1cc(CNc2cc(OC[C@H]3C[C@@H]3c3ccccn3)nc3cnccc23)cn1 >= 80 µM
Criterion met

====

test: Selectivity ratio of Ki for N-terminal GST-tagged human recombinant PDE4A1A (1 to 647 residues) expressed in baculovirus-infected Sf9 cells to Ki for human PDE10A2 transfected in human AD293 cells cytosolic fraction
Collected Ratio Ki values appear next to each entry.

Example cases with answers are listed next.
| smiles-entry | reported-measurement |
| --- | --- |
| Cc1nc(NCc2nnc(C)s2)cc(OC[C@H]2C[C@@H]2c2ccccn2)n1 | > 45000 |
| Cn1cc(CNc2cc(OC[C@H]3C[C@@H]3c3ccccn3)nc3cccnc23)cn1 | > 2000 |
| Cc1c(Cl)nc(OC[C@H]2C[C@@H]2c2ccccn2)nc1NCc1cnn(C)c1 | > 2500 |
| Cc1ccc([C@H]2C[C@@H]2COc2cc(NCc3nnc(C)s3)nc(C)n2)nc1 | > 500000 |

Find the recorded Ratio Ki belonging to Cc1ccc([C@H]2C[C@@H]2COc2cc(NCc3cnn(C)c3)nc(C)n2)nc1 and report it.
> 425000

Find the recorded Ratio Ki belonging to COc1ccc([C@H]2C[C@@H]2COc2cc(NCc3nnc(C)s3)nc(C)n2)nc1 and report it.
> 225000

Find the recorded Ratio Ki belonging to COc1ccc([C@H]2C[C@@H]2COc2cc(NCc3cnn(C)c3)nc(C)n2)nc1 and report it.
> 490000

Find the recorded Ratio Ki belonging to Cc1nnc(CNc2cc(OC[C@H]3C[C@@H]3c3ccccn3)nc3cccnc23)s1 and report it.
> 3600

Find the recorded Ratio Ki belonging to Cc1nc(NCc2cnn(C)c2)cc(OC[C@H]2C[C@@H]2c2ccccn2)n1 and report it.
> 67000

Find the recorded Ratio Ki belonging to Cc1nc(C)c(CNc2nc(OCCCc3ccc4ccccc4n3)nc(Cl)c2C)s1 and report it.
> 5000
